- target: human CCR7 (Homo sapiens, UniProt P32248)
- Construct: expressed in transfected cells
- Sequence (P32248 25-378): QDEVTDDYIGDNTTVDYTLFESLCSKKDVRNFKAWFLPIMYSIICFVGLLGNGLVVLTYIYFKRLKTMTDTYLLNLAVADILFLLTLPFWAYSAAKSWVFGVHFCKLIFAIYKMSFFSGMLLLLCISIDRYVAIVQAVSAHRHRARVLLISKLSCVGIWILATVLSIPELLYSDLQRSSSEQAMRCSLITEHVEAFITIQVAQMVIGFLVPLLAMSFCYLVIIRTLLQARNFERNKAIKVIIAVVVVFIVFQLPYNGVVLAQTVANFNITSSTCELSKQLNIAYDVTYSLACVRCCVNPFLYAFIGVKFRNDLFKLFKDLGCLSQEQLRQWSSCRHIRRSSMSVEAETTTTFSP
- assay-name: CCL19-induced calcium mobilization assay, U87.CD4 cells expressing CCR7
- Type: cell-based
- stated-conditions: CCL19-induced calcium signaling; read-out: IC50 [μM] block CCL19 induced calcium signaling
The following compounds are shown together with reported IC50 values.

{"compound": "O=C([C@@H]1CCCO1)N1CCc2ncnc(NCCc3ccco3)c2CC1", "IC50": "> 50 µM"}

Turning now to a further compound:
What does the data say about its IC50? Entry: Cc1cccnc1[C@H](N[C@H]1CCN(CC(F)(F)F)C1=O)C(C)C
> 50 µM
